The entries below are paired with their reported Kb.
molecular target: Vasopressin V1a receptor (Rattus norvegicus, UniProt P30560); test: Anti-vasopressor activity at V1a receptor; conditions: read-out: pA2 (converted)
Sequence (P30560 whole entry): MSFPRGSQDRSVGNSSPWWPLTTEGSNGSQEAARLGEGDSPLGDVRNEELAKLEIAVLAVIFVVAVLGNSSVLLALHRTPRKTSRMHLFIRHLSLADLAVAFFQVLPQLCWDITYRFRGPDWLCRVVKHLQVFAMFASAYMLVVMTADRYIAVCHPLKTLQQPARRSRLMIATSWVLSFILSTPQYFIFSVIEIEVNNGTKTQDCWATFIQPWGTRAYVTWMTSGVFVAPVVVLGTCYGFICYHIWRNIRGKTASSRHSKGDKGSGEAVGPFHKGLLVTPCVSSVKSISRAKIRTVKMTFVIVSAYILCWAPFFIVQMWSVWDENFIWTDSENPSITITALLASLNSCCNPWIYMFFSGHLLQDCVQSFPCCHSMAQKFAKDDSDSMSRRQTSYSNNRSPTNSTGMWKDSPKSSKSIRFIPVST
Numbered stars: 1 amine (or outer) side, 2 acyl side, 3 side chain; on linkers, the order of the positions; unused ones are H or OH. Bridge positions count the residues as written; N and C are the ends. Square brackets hold non-standard residues; d marks the D form. Peptide text beside a SMILES is read from it. X2 = O=C(CC1(S[*:2])CCCCC1)[*:1]
Give just the number in nM; leave the unit off.

Qu. What value of Kb has been recorded for this entry: CC[C@H](C)[C@@H]1NC(=O)[C@@H](Cc2c[nH]c3ccccc23)NC(=O)CC2(CCCCC2)SSC[C@H](C(=O)N2CCC[C@H]2C(=O)N[C@@H](CCCN=C(N)N)C(=O)NCC(N)=O)NC(=O)[C@H](CC(N)=O)NC(=O)[C@H](CCC(N)=O)NC1=O ([dW]IQN[dC]PRG-NH2; linker N-5 via X2)
Ans. 29.5

Qu. Now consider CC(C)[C@@H]1NC(=O)[C@H](Cc2ccccc2)NC(=O)[C@@H](Cc2ccccc2)NC(=O)CC2(CCCCC2)SSC[C@@H](C(=O)N2CCC[C@H]2C(=O)N[C@@H](CCCN=C(N)N)C(=O)NCC(N)=O)NC(=O)[C@H](CC(N)=O)NC1=O .
Ans. 8.71

Qu. Also CC[C@H](C)[C@@H]1NC(=O)[C@H](Cc2ccc(OC)cc2)NC(=O)CC2(CCCCC2)SSC[C@H](C(=O)N2CCC[C@H]2C(=O)N[C@@H](CCCN)C(=O)N[C@@H](Cc2ccc(O)cc2)C(N)=O)NC(=O)[C@H](CC(N)=O)NC(=O)[C@H]([C@@H](C)O)NC1=O , if possible.
Ans. 148

Qu. Repeat for the following molecule: CC[C@H](C)[C@@H]1NC(=O)[C@H](Cc2ccc(OC)cc2)NC(=O)CC2(CCCCC2)SSC[C@H](C(=O)N2CCC[C@H]2C(=O)N[C@@H](CCCN)C(=O)O)NC(=O)[C@H](CC(N)=O)NC(=O)[C@H]([C@@H](C)O)NC1=O
Ans. 275
